system-under-test: PPARγ (Mus musculus)
Sequence (P37238 202-505): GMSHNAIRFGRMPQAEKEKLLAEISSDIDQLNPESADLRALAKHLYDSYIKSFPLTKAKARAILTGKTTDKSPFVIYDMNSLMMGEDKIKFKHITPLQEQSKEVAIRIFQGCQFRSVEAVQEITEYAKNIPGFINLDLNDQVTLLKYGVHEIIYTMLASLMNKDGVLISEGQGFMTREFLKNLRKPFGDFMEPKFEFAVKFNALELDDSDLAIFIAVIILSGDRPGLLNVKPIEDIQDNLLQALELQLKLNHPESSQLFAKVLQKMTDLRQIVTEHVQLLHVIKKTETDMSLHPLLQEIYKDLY
assay-notes: GAL4-PPARγ reporter (luciferase) activation assay in HepG2 cells
particulars: HepG2, 48 h, read-out: Relative activity (control = 1) PPARγ
measured-quantity: fold induction at 100 µM
Respond numerically, and do not add a unit to the figure.

| compound | measured-quantity | observed-measurement |
| --- | --- | --- |
| Cc1cccc(Nc2cc(Cl)nc(SCC(=O)O)n2)c1C [Wy 14,643, prinixic acid] | fold induction at 100 µM | 1.8 |
| CCCc1c(OCCCOc2ccc(CC(=O)O)cc2)ccc(C(C)=O)c1O [Production Example 1] | fold induction at 100 µM | 10.3 |
| CCCc1c(OCCCSc2nnc(SCC(=O)O)s2)ccc(C(C)=O)c1O [YM-16638] | fold induction at 100 µM | 2.5 |
| CCOC(=O)C(C)(C)Oc1ccc(Cl)cc1 [Clofibrate] | fold induction at 100 µM | 0.9 |

Consider the record given below.
Value (fold induction at 100 µM, PPARγ (Mus musculus)) for record CCCCC[C@H](O)/C=C/[C@@H]1[C@H]2C/C(=C/CCCC(=O)O)C[C@H]2C[C@H]1O [cPGI2, carbaprostacyclin] = 1.6
